# Tested on: SEM cells
# protocol_notes: cell viability relative to DMSO control; higher = less cytotoxic
# condition_details: RPMI 5 mM glucose + 10% dialyzed FBS; 48 h; 0.19 µM
// boundary case: cell viability equal to 90% maps to 0.0; strictly smaller maps to 1.0

Exercise: Report whether reported cell viability is lower than 90% (strictly) for CCN(CC)CCNC(=O)c1ccc2nc(-c3ccccc3)c(-c3ccc(CN4CCC(n5c(=O)[nH]c6ccccc65)CC4)cc3)nc2c1
Key: 1.0

Exercise: Next: N#C[C@@H]1C[C@@H]2C[C@@H]2N1C(=O)[C@@H](N)C12CC3CC(CC(O)(C3)C1)C2
Key: 0.0

Exercise: // next record Cc1nc(C(=O)NCC(=O)O)c(O)c2ccc(Oc3ccccc3)cc12
Key: 0.0

Exercise: Please answer likewise for CCNC(=O)c1noc(-c2cc(C(C)C)c(O)cc2O)c1-c1ccc(CN2CCOCC2)cc1
Key: 1.0

Exercise: Entry CN(C)Cc1cccc(N/C(=C2\C(=O)Nc3cc(C(=O)N(C)C)ccc32)c2ccccc2)c1 please
Key: 0.0

Exercise: And for N[S+](=O)([O-])c1cc2c(cc1Cl)NCN[S+]2(=O)[O-] ?
Key: 0.0

Exercise: Same question, CC(C)C1=N[N](C\2=C1C(=O)N\C(=N2)CC3=CC=C(OCCO)C=C3)C4=C(Cl)C=CC=C4Cl this time
Key: 1.0
